All values here come from ChEMBL document CHEMBL1799910.

# key: entry, value: solubility
# runDescription: Aqueous solubility of compound at pH 7.4 by HPLC analysis
# assaySetup: buffer

>  <compound>
Cc1ccc2c(=O)c3c([nH]c2c1)CCC(C)(C)C3

>  <quantityUnit>
µM

>  <solubility>
75

$$$$
>  <compound>
Cc1ccc2[nH]c3c(c(=O)c2c1)CCCC3

>  <quantityUnit>
µM

>  <solubility>
44

$$$$
>  <compound>
COc1cc2[nH]c3c(c(=O)c2cc1Cl)CS(=O)(=O)CC3

>  <quantityUnit>
µM

>  <solubility>
24

$$$$
>  <compound>
O=c1c2c([nH]c3c(F)cccc13)CCCC2

>  <quantityUnit>
µM

>  <solubility>
109

$$$$
>  <compound>
COc1ccc(OC)c2c(=O)c3c([nH]c12)CCCC3

>  <quantityUnit>
µM

>  <solubility>
105

$$$$
>  <compound>
CC1(C)CCc2[nH]c3c(Cl)cccc3c(=O)c2C1

>  <quantityUnit>
µM

>  <solubility>
62

$$$$
>  <compound>
O=c1c2c([nH]c3cccc(Cl)c13)CCCC2

>  <quantityUnit>
µM

>  <solubility>
99

$$$$
>  <compound>
O=c1c2c([nH]c3c(Cl)cc(Cl)cc13)CCCC2

>  <quantityUnit>
µM

>  <solubility>
1

$$$$
>  <compound>
COc1cc2[nH]c3c(c(=O)c2cc1C)CSCC3

>  <quantityUnit>
µM

>  <solubility>
14

$$$$
>  <compound>
O=c1c2c([nH]c3c(Cl)c(Cl)ccc13)CCCC2

>  <quantityUnit>
µM

>  <solubility>
41

$$$$
>  <compound>
Cc1cccc2[nH]c3c(c(=O)c12)CCCC3

>  <quantityUnit>
µM

>  <solubility>
99

$$$$
>  <compound>
O=c1c2c([nH]c3c(F)cc(F)cc13)CCCC2

>  <quantityUnit>
µM

>  <solubility>
66

$$$$
>  <compound>
O=c1c2c([nH]c3ccc([N+](=O)[O-])cc13)CCCC2

>  <quantityUnit>
µM

>  <solubility>
8

$$$$
>  <compound>
O=c1c2c([nH]c3cc(C(F)(F)F)ccc13)CCCC2

>  <quantityUnit>
µM

>  <solubility>
158

$$$$
>  <compound>
Cc1cccc2c(=O)c3c([nH]c12)CCC(C)(C)C3

>  <quantityUnit>
µM

>  <solubility>
38

$$$$
>  <compound>
COc1ccc2c(=O)c3c([nH]c2c1)CCCC3

>  <quantityUnit>
µM

>  <solubility>
82

$$$$
>  <compound>
Cc1ccc2[nH]c3c(c(=O)c2c1)CC(C)(C)CC3

>  <quantityUnit>
µM

>  <solubility>
52

$$$$
>  <compound>
COc1cccc2[nH]c3c(c(=O)c12)CCCC3

>  <quantityUnit>
µM

>  <solubility>
76

$$$$
>  <compound>
O=c1c2c([nH]c3cc(F)c(F)cc13)CCCC2

>  <quantityUnit>
µM

>  <solubility>
18

$$$$
>  <compound>
COc1cccc2[nH]c3c(c(=O)c12)CC(C)(C)CC3

>  <quantityUnit>
µM

>  <solubility>
83

$$$$
>  <compound>
COc1ccc2c(=O)c3c([nH]c2c1)CC(C)(C)CC3

>  <quantityUnit>
µM

>  <solubility>
92

$$$$
>  <compound>
CC1(C)CCc2c([nH]c3cccc(Cl)c3c2=O)C1

>  <quantityUnit>
µM

>  <solubility>
6

$$$$
>  <compound>
O=c1c2c([nH]c3c(F)c(F)ccc13)CCCC2

>  <quantityUnit>
µM

>  <solubility>
93

$$$$
>  <compound>
O=c1c2c([nH]c3c(Cl)ccc(Cl)c13)CCCC2

>  <quantityUnit>
µM

>  <solubility>
108

$$$$
>  <compound>
O=c1c2c([nH]c3ccc(Cl)cc13)CCC(F)(F)C2

>  <quantityUnit>
µM

>  <solubility>
4

$$$$
>  <compound>
Cc1ccc2c(=O)c3c([nH]c2c1)CC(C)(C)CC3

>  <quantityUnit>
µM

>  <solubility>
17

$$$$
>  <compound>
O=c1c2c([nH]c3c(F)ccc(F)c13)CCCC2

>  <quantityUnit>
µM

>  <solubility>
159

$$$$
>  <compound>
CCOC(=O)c1ccc2[nH]c3c(c(=O)c2c1)CCCC3

>  <quantityUnit>
µM

>  <solubility>
8

$$$$
>  <compound>
O=c1c2c([nH]c3cc([N+](=O)[O-])ccc13)CCCC2

>  <quantityUnit>
µM

>  <solubility>
3

$$$$
>  <compound>
CN(C)c1ccc(-c2ccc3c(=O)c4c([nH]c3c2)CCCC4)cc1

>  <quantityUnit>
µM

>  <solubility>
11

$$$$
>  <compound>
O=c1c2c([nH]c3ccc(I)cc13)CCCC2

>  <quantityUnit>
µM

>  <solubility>
4

$$$$
>  <compound>
O=c1c2c([nH]c3cc(-c4ccc(Oc5ccc(OC(F)(F)F)cc5)cc4)ccc13)CCCC2

>  <quantityUnit>
µM

>  <solubility>
0.1

$$$$
>  <compound>
COc1cc2[nH]c3c(c(=O)c2cc1Cl)CSCC3

>  <quantityUnit>
µM

>  <solubility>
13

$$$$
>  <compound>
Cc1cc(Cl)ccc1-c1ccc2[nH]c3c(c(=O)c2c1)CSCC3

>  <quantityUnit>
µM

>  <solubility>
2

$$$$
>  <compound>
O=c1c2c([nH]c3cc(Br)ccc13)CCSC2

>  <quantityUnit>
µM

>  <solubility>
17

$$$$
>  <compound>
O=c1c2c([nH]c3ccc(-c4ccc(COc5ccc(OC(F)(F)F)cc5)cc4)cc13)CCSC2

>  <quantityUnit>
µM

>  <solubility>
12

$$$$
>  <compound>
COc1ccc2[nH]c3c(c(=O)c2c1)CCC(C)(C)C3

>  <quantityUnit>
µM

>  <solubility>
9.2

$$$$
>  <compound>
O=c1c2c([nH]c3c(Cl)cccc13)CCCC2

>  <quantityUnit>
µM

>  <solubility>
107

$$$$
>  <compound>
CC1(C)CCc2c([nH]c3ccccc3c2=O)C1

>  <quantityUnit>
µM

>  <solubility>
64

$$$$
>  <compound>
Oc1c2c(nc3ccc(Br)cc13)CCCC2

>  <quantityUnit>
µM

>  <solubility>
2

$$$$
>  <compound>
CC1(C)CCc2[nH]c3ccccc3c(=O)c2C1

>  <quantityUnit>
µM

>  <solubility>
35

$$$$
>  <compound>
O=C1CC(c2ccc(Cl)cc2Cl)Cc2nc3ccc(Cl)cc3c(O)c21 (stereo not given)

>  <quantityUnit>
µM

>  <solubility>
1

$$$$
>  <compound>
CC(C)(C)c1cccc2c(=O)c3c([nH]c12)CCCC3

>  <quantityUnit>
µM

>  <solubility>
90

$$$$
>  <compound>
O=c1c2c([nH]c3cc(Br)ccc13)CCCC2

>  <quantityUnit>
µM

>  <solubility>
14

$$$$
>  <compound>
COc1ccc2[nH]c3c(c(=O)c2c1)CC(C)(C)CC3

>  <quantityUnit>
µM

>  <solubility>
38

$$$$
>  <compound>
O=c1c2c([nH]c3ccc(-c4ccc(C(F)(F)F)cc4)cc13)CCCC2

>  <quantityUnit>
µM

>  <solubility>
2

$$$$
>  <compound>
O=c1c2c([nH]c3cc(C(F)(F)F)ccc13)CCCCC2

>  <quantityUnit>
µM

>  <solubility>
17

$$$$
>  <compound>
COc1cc2c(=O)c3c([nH]c2cc1Cl)CCCC3

>  <quantityUnit>
µM

>  <solubility>
33

$$$$
>  <compound>
O=c1c2c([nH]c3ccc(Oc4ccc(F)cc4)cc13)CCCC2

>  <quantityUnit>
µM

>  <solubility>
8

$$$$
>  <compound>
Cc1cccc2[nH]c3c(c(=O)c12)CC(C)(C)CC3

>  <quantityUnit>
µM

>  <solubility>
45

$$$$

* * *

# Tested on: Plasmodium falciparum
# runDescription: Resistance index, ratio of EC50 for chloroquine, mefloquine, pyrimethamine and atovaquone-resistant Plasmodium falciparum TM90-C2B to EC50 for chloroquine and pyrimethamine-resistant Plasmodium falciparum W2
# Assay type: functional
Is Ratio EC50 at least 0.9? Then 1. If not, -1.

>  <compoundStructure>
Cc1ccc2c(=O)c3c([nH]c2c1)CCC(C)(C)C3

>  <qualitativeLabel>
1

$$$$
>  <compoundStructure>
COc1cccc2c(=O)c3c([nH]c12)CCCC3

>  <qualitativeLabel>
1

$$$$
>  <compoundStructure>
COc1cc2[nH]c3c(c(=O)c2cc1Cl)CSCC3

>  <qualitativeLabel>
1

$$$$
>  <compoundStructure>
COc1cc2[nH]c3c(c(=O)c2cc1Cl)CS(=O)(=O)CC3

>  <qualitativeLabel>
1

$$$$
>  <compoundStructure>
Cc1cc(C)c2[nH]c3c(c(=O)c2c1)CCCC3

>  <qualitativeLabel>
-1

$$$$
>  <compoundStructure>
Cc1ccc2c(=O)c3c([nH]c2c1)CCCC3

>  <qualitativeLabel>
1

$$$$
>  <compoundStructure>
Cc1ccc2c(=O)c3c([nH]c2c1C)CCCC3

>  <qualitativeLabel>
-1

$$$$
>  <compoundStructure>
Cc1cc(C)c2c(=O)c3c([nH]c2c1)CCCC3

>  <qualitativeLabel>
1

$$$$
>  <compoundStructure>
O=c1c2c([nH]c3ccc(-c4ccncc4)cc13)CCSC2

>  <qualitativeLabel>
-1

$$$$
>  <compoundStructure>
COc1ccc2[nH]c3c(c(=O)c2c1)CCCC3

>  <qualitativeLabel>
1

$$$$
>  <compoundStructure>
COc1ccc2c(=O)c3c([nH]c2c1OC)CCCC3

>  <qualitativeLabel>
-1

$$$$
>  <compoundStructure>
O=c1c2c([nH]c3cc(Br)ccc13)CCCC2

>  <qualitativeLabel>
1

$$$$
